The measured values listed here are drawn from patent US10125134B2.

- Test system: NCI-H358 cells (express KRas G12C), Phospho-ERK
- assayComment: Cellular inhibition of KRas G12C: Phospho-ERK in NCI-H358 cells
- Format: cell-based
- testConditions: Homo sapiens, NCI-H358, 3 h, pERK(Thr202/Tyr204) normalized with GAPDH; NCI-H358 cells; 3 hours; read-out: IC50
pIC50: −log10 of the molar value.
# reported pIC50; entries follow

// below: answered molecules
molecule="C=CC(=O)N1CCN(c2nc(OC[C@@H]3CCCN3CC3CC3)nc3c2CCN(c2cccc4ccccc24)C3)CC1CC#N (some centres unmarked) [Example 395]" recordedmetric=pIC50 endpointresult="6.00 to 10.00"
molecule="C=CC(=O)N1CCN(c2nc(O[C@H](C)CN(C)C)nc3c2CCN(c2cc(O)cc4ccccc24)C3)CC1CC#N (some centres unmarked) [Example 150]" recordedmetric=pIC50 endpointresult="6.00 to 10.00"
molecule="C=CC(=O)N1CCN(c2nc(OC[C@@H]3CCCN3C)nc3c2CCN(c2cccc4ccn(C)c24)C3)C[C@@H]1CC#N [Example 434]" recordedmetric=pIC50 endpointresult="6.00 to 10.00"
molecule="C=CC(=O)N1CCN(c2nc(OC[C@@H]3CCCN3C)nc3c2CCN(c2cccc(Cl)c2CC)C3)C[C@@H]1CC#N [Example 337]" recordedmetric=pIC50 endpointresult="6.00 to 10.00"
molecule="C=CC(=O)N1CCN(c2nc(OCCN3CCCCC3)nc3c2CCN(c2cccc4ccccc24)C3)CC1CC#N (centres unmarked) [Example 303]" recordedmetric=pIC50 endpointresult="6.00 to 10.00"
molecule="C=CC(=O)N1CCN(c2nc(OC[C@H]3CCCCN3C)nc3c2CCN(c2cc(O)cc4ccccc24)C3)CC1 [Example 195]" recordedmetric=pIC50 endpointresult="< 6.00"
molecule="C=CC(=O)N1CCN(c2nc(OC[C@@H]3CCCN3C)nc3c2CCN(c2cccc4ccccc24)C3)C(C)(C)C1 [Example 354]" recordedmetric=pIC50 endpointresult="< 6.00"
molecule="C=CC(=O)N1CCN(c2nc(OCCN3CCC(C)CC3)nc3c2CCN(c2cc(O)cc4ccccc24)C3)CC1 [Example 92]" recordedmetric=pIC50 endpointresult="6.00 to 10.00"

From here, focus on the item given below.
Param readout= pIC50; system= NCI-H358 cells (express KRas G12C), Phospho-ERK; entry= C=CC(=O)N1CCN(c2nc(OCCCN3C[C@@H]4C[C@H]3CO4)nc3c2CCN(c2cc(O)cc4ccccc24)C3)CC1 [Example 104] ; returns value.
6.00 to 10.00

###

- Tested on: NCI-H358 cells (express KRas G12C), Phospho-ERK
- assayComment: Cellular inhibition of KRas G12C: Phospho-ERK in NCI-H358 cells
- Type: cell-based
- testConditions: pERK(Thr202/Tyr204) normalized with GAPDH; NCI-H358 cells; 3 hours; read-out: IC50
- Protocol: The cellular inhibition of KRAs G12C by exemplary compounds of the present invention was determined by measuring the amount of a downstream marker of KRas activity, phosphorylated ERK (“Phospho-ERK”). […] The amount Phospho-ERK was determined using an antibody specific for the phosphorylated form of ERK and compared to the amount of GAPDH. […] The pERK(Thr202/Tyr204) signal was normalized with the GAPDH signal and percent of DMSO control values were calculated. […]
recordedMetric: IC50

Study these solved cases before continuing.
compound="C=CC(=O)N1CCN(c2nc(OC[C@@H]3CCCN3C)nc3c2CCN(c2cccc4ccccc24)C3)CC1COC (stereo partly shown)" endpointresult="> 1000 nM"
compound="C=CC(=O)N1CCN(c2nc(OC[C@@H]3CCCN3C)nc3c2CCN(c2c(F)cccc2C(F)(F)F)C3)CC1CC#N (stereo partly shown)" endpointresult="0.1 to 1000 nM"
compound="C=CC(=O)N1CCN(c2nc(OC[C@@H]3CCCN3C)nc3c2CCN(c2ccccc2CC(F)(F)F)C3)CC1CC#N (stereo partly shown)" endpointresult="> 1000 nM"
compound="C=CC(=O)N1CCN(c2nc(OCCCN3C[C@H]4C[C@@H]3CO4)nc3c2CCN(c2ccccc2C(F)(F)F)C3)CC1CC#N (stereo partly shown)" endpointresult="0.1 to 1000 nM"

Quick one: IC50 for C=CC(=O)N1CCN(c2nc(OC[C@H]3CCCN3C)nc3c2CCN(c2cccc(F)c2C(F)(F)F)C3)C[C@@H]1CC#N ?
0.1 to 1000 nM

// lookup IC50 for C=CC(=O)N1CCN(c2nc(OC[C@@H]3CCCN3C)nc3c2CCN(c2cccc4ccc(OC)cc24)C3)CC1CC#N (stereo partly shown)
> 1000 nM

Endpoint output: IC50 of C=CC(=O)N1CCN(c2nc(OC[C@@H]3CCCN3C)nc3c2CCN(c2nccc4ccccc24)C3)CC1CC#N (stereo partly shown) . Value?
> 1000 nM

###

- System: NCI-H358 cells (express KRas G12C), Phospho-ERK
- assayComment: Cellular inhibition of KRas G12C: Phospho-ERK in NCI-H358 cells
- Format: cell-based
- testConditions: Homo sapiens, NCI-H358, 3 h, pERK(Thr202/Tyr204) normalized with GAPDH; NCI-H358 cells; 3 hours; read-out: IC50
pIC50: −log10 of the molar value.
recordedMetric: pIC50

Example entries and their recorded answers appear below.
compound=C=CC(=O)N1CCN(c2nc(OC[C@@H]3CCCN(C)C3)nc3c2CCN(c2cc(O)cc4ccccc24)C3)CC1 tgt="NCI-H358 cells (express KRas G12C), Phospho-ERK" endpointresult="6.00 to 10.00"
compound=C=CC(=O)N1CCN(c2nc(OC[C@@H]3CCCN3C)nc3c2CCN(c2cccc4cccn24)C3)C[C@@H]1CC#N tgt="NCI-H358 cells (express KRas G12C), Phospho-ERK" endpointresult="6.00 to 10.00"
compound="C=CC(=O)N1CCN(c2nc(OC[C@@H]3CCCN3C)nc3c2CCN(c2ccccc2F)C3)CC1CC#N (stereo partly shown)" tgt="NCI-H358 cells (express KRas G12C), Phospho-ERK" endpointresult="6.00 to 10.00"
compound=C=CC(=O)N1CCN(c2nc(OC[C@@H]3CCCN3C)nc3c2CCN(c2c(OC)ccc4[nH]ncc24)C3)CC1 tgt="NCI-H358 cells (express KRas G12C), Phospho-ERK" endpointresult="< 6.00"

Identify the measured pIC50 of C=CC(=O)N1CCN(c2nc(OCCN(C)C)nc3c2CCN(c2cc(O)cc4ccccc24)C3)CC1 for NCI-H358 cells (express KRas G12C), Phospho-ERK.
< 6.00

Could you share what pIC50 was measured for C=CC(=O)N1CCN(c2nc(OC[C@H]3CN(C)CCO3)nc3c2CCN(c2cccc4cccc(Cl)c24)C3)C[C@@H]1CC#N , tested on NCI-H358 cells (express KRas G12C), Phospho-ERK?
6.00 to 10.00

Report pIC50 for C=CC(=O)N1CCN(c2nc(OC[C@H]3CN(C)C4(CC4)CO3)nc3c2CCN(c2cccc4ccccc24)C3)C[C@@H]1CC#N tested on NCI-H358 cells (express KRas G12C), Phospho-ERK.
6.00 to 10.00

###

- System: NCI-H358 cells (express KRas G12C), Phospho-ERK
- assayComment: Cellular inhibition of KRas G12C: Phospho-ERK in NCI-H358 cells
- Format: cell-based
- testConditions: Homo sapiens, NCI-H358, 3 h, pERK(Thr202/Tyr204) normalized with GAPDH; NCI-H358 cells; 3 hours; read-out: IC50
Structures can show the parent of a compound that is named as a salt.
recordedMetric: IC50

For the compound C=CC(=O)N1CCN(c2nc(OC[C@@H]3C[C@@H](OC)CN3C)nc3c2CCN(c2cccc(Cl)c2C(F)(F)F)C3)C[C@@H]1CC#N , what IC50 is on record?
0.1 to 1000 nM

I'd like to know its IC50. The compound in question is C=CC(=O)N1CCN(c2nc(OCCc3ccccn3)nc3c2CCN(c2cc(O)cc4ccccc24)C3)CC1 [Example 126, trifluoroacetate]
> 1000 nM

Dear colleague, I am looking for the recorded IC50 of the following compound: C=CC(=O)N1CCN(c2nc(OC[C@@H]3CCCN3C)nc3c2CCN(c2cccc(C)c2C)C3)CC1CC#N (stereo partly drawn)
0.1 to 1000 nM

# lookup: IC50 of C=CC(=O)N1CCN(c2nc(OCCCN3CCOCC3)nc3c2CCN(c2cccc4cccc(C)c24)C3)C[C@@H]1CC#N
0.1 to 1000 nM

Entry C=CC(=O)N1CCN(c2nc(OC[C@@H]3CCCN3CCOC)nc3c2CCN(c2cccc4ccccc24)C3)CC1CC#N (stereo partly drawn) : reported IC50 = ?
0.1 to 1000 nM
